Numbers sourced from the supplement of paper PMC10307832.

test system: NCI-H1993; assay: relative viability (nuclei count vs DMSO), 5 days (fraction); higher = more cells survive; details: first compound 0.0002 µM
Record form. Attribute: relative viability. Fill in for each entry.
Please give only the number in your answer, with no unit.

Ask: Given the compound CC(=O)O[C@@]12CO[C@@H]1C[C@H](O)[C@@]1(C)C(=O)[C@H](O)C3=C(C)[C@@H](OC(=O)[C@H](O)[C@@H](NC(=O)OC(C)(C)C)c4ccccc4)C[C@@](O)([C@@H](OC(=O)c4ccccc4)[C@H]21)C3(C)C [Docetaxel] + O=C(c1cc(Cc2n[nH]c(=O)c3ccccc23)ccc1F)N1CCN(C(=O)C2CC2)CC1 [Olaparib] (partner 8 µM) , what is its reported relative viability?
Result: 0.929

Ask: Look up relative viability: CC(=O)O[C@@]12CO[C@@H]1C[C@H](O)[C@@]1(C)C(=O)[C@H](O)C3=C(C)[C@@H](OC(=O)[C@H](O)[C@@H](NC(=O)OC(C)(C)C)c4ccccc4)C[C@@](O)([C@@H](OC(=O)c4ccccc4)[C@H]21)C3(C)C [Docetaxel] + Nc1ncn([C@H]2C[C@H](O)[C@@H](CO)O2)c(=O)n1 [Decitabine] (partner 2 µM)
Result: 0.608

Ask: Look at this compound and give its reported relative viability. CC(=O)O[C@@]12CO[C@@H]1C[C@H](O)[C@@]1(C)C(=O)[C@H](O)C3=C(C)[C@@H](OC(=O)[C@H](O)[C@@H](NC(=O)OC(C)(C)C)c4ccccc4)C[C@@](O)([C@@H](OC(=O)c4ccccc4)[C@H]21)C3(C)C [Docetaxel] + NC(=O)Nc1cc(-c2cccc(F)c2)sc1C(=O)N[C@H]1CCCNC1 [AZD7762] (partner 0.2 µM)
Result: 0.873

---

Provide the recorded relative viability for the entries that follow.
test system: NCI-H596; experiment: relative viability (nuclei count vs DMSO), 5 days (fraction); higher = more cells survive; settings: first compound 0.01581 µM
Lab note: record just the number, no unit beside it.

Ask: Request - read-out relative viability | tested on NCI-H596 | molecule Nc1ccn([C@@H]2O[C@H](CO)[C@@H](O)[C@@H]2O)c(=O)n1 [Cytarabine] + CC1(C)CCC(c2ccc(Cl)cc2)=C(CN2CCN(c3ccc(C(=O)NS(=O)(=O)c4ccc(N[C@H](CCN5CCOCC5)CSc5ccccc5)c(S(=O)(=O)C(F)(F)F)c4)cc3)CC2)C1 [Navitoclax] (partner 0.5 µM)
Result: 0.894

Ask: Lab request: please report relative viability under test system NCI-H596 for COc1cc2nccc(Oc3ccc(NC(=O)Nc4cc(C)on4)c(Cl)c3)c2cc1OC [Tivozanib] + COc1cccc2cc(-c3nc([C@H]4CC[C@H](C(=O)O)CC4)n4ncnc(N)c34)[nH]c12 [OSI-027] (partner 0.5 µM)
Result: 0.596

Ask: Which measured relative viability belongs to Nc1ccn([C@@H]2O[C@H](CO)[C@@H](O)[C@@H]2O)c(=O)n1 [Cytarabine] + CS(=O)(=O)CCNCc1ccc(-c2ccc3ncnc(Nc4ccc(OCc5cccc(F)c5)c(Cl)c4)c3c2)o1 [Lapatinib] (partner 2 µM) , tested on NCI-H596?
Result: 0.903

Ask: Give NCI-H596 relative viability for Nc1ccn([C@@H]2O[C@H](CO)[C@@H](O)[C@@H]2O)c(=O)n1 [Cytarabine] + CC(C)C[C@H](NC(=O)[C@H](Cc1ccccc1)NC(=O)c1cnccn1)B(O)O [Bortezomib] (partner 0.002 µM)
Result: 0.853

Ask: What is its relative viability for NCI-H596? Entry: COc1cc2nccc(Oc3ccc(NC(=O)Nc4cc(C)on4)c(Cl)c3)c2cc1OC [Tivozanib] + O=C(CCCCCCC(=O)Nc1ccccc1)NO [Vorinostat] (partner 1 µM)
Result: 0.569

Ask: Lab note: need relative viability with NCI-H596 for entry COc1cc2nccc(Oc3ccc(NC(=O)Nc4cc(C)on4)c(Cl)c3)c2cc1OC [Tivozanib] + Nc1ncn([C@H]2C[C@H](O)[C@@H](CO)O2)c(=O)n1 [Decitabine] (partner 2 µM) , please look it up.
Result: 0.994

Ask: Enter reported relative viability observed with NCI-H596 for Nc1ccn([C@@H]2O[C@H](CO)[C@@H](O)[C@@H]2O)c(=O)n1 [Cytarabine] + C[C@]1(O)C[C@@H](c2nc(-c3ccc4ccc(-c5ccccc5)nc4c3)c3c(N)nccn32)C1 [Linsitinib] (partner 1 µM)
Result: 0.857

Ask: Give NCI-H596 relative viability for COc1cc2nccc(Oc3ccc(NC(=O)Nc4cc(C)on4)c(Cl)c3)c2cc1OC [Tivozanib] + O=C(c1cc(Cc2n[nH]c(=O)c3ccccc23)ccc1F)N1CCN(C(=O)C2CC2)CC1 [Olaparib] (partner 8 µM)
Result: 0.696

---

system: HCC-15; assay: relative viability (nuclei count vs DMSO), 5 days (fraction); higher = more cells survive; details: first compound 0.002 µM
Would you mind telling me the reported relative viability of each entry?
Keep the answer to the number alone.

Ask: Return relative viability measured with HCC-15 given this compound: CC(=O)O[C@@]12CO[C@@H]1C[C@H](O)[C@@]1(C)C(=O)[C@H](O)C3=C(C)[C@@H](OC(=O)[C@H](O)[C@@H](NC(=O)OC(C)(C)C)c4ccccc4)C[C@@](O)([C@@H](OC(=O)c4ccccc4)[C@H]21)C3(C)C [Docetaxel] + C[C@@H](Oc1cc(-c2cnn(C3CCNCC3)c2)cnc1N)c1c(Cl)ccc(F)c1Cl [Crizotinib] (partner 1 µM)
Result: 0.172

Ask: Find relative viability (HCC-15) for the entry CC(=O)O[C@@]12CO[C@@H]1C[C@H](O)[C@@]1(C)C(=O)[C@H](O)C3=C(C)[C@@H](OC(=O)[C@H](O)[C@@H](NC(=O)OC(C)(C)C)c4ccccc4)C[C@@](O)([C@@H](OC(=O)c4ccccc4)[C@H]21)C3(C)C [Docetaxel] + N=C(N)NC(=N)NCCc1ccccc1 [Phenformin] (partner 250 µM)
Result: 0.181

Ask: Form field: relative viability recorded for CC(=O)O[C@@]12CO[C@@H]1C[C@H](O)[C@@]1(C)C(=O)[C@H](O)C3=C(C)[C@@H](OC(=O)[C@H](O)[C@@H](NC(=O)OC(C)(C)C)c4ccccc4)C[C@@](O)([C@@H](OC(=O)c4ccccc4)[C@H]21)C3(C)C [Docetaxel] + CS(=O)(=O)N1CCN(Cc2cc3nc(-c4cccc5[nH]ncc45)nc(N4CCOCC4)c3s2)CC1 [Pictilisib] (partner 1 µM) with HCC-15 (enter value)
Result: 0.226

Ask: What measured relative viability is associated with CC(=O)O[C@@]12CO[C@@H]1C[C@H](O)[C@@]1(C)C(=O)[C@H](O)C3=C(C)[C@@H](OC(=O)[C@H](O)[C@@H](NC(=O)OC(C)(C)C)c4ccccc4)C[C@@](O)([C@@H](OC(=O)c4ccccc4)[C@H]21)C3(C)C [Docetaxel] + Nc1ncn([C@H]2C[C@H](O)[C@@H](CO)O2)c(=O)n1 [Decitabine] (partner 2 µM) on HCC-15?
Result: 0.217

---

system: NCI-H1993; assay: relative viability (nuclei count vs DMSO), 5 days (fraction); higher = more cells survive; details: first compound 0.01581 µM
Would you kindly list relative viability for each of these compounds?
In your answer, state the number alone without any accompanying words.

Ask: Look up relative viability: COc1cc2nccc(Oc3ccc(NC(=O)Nc4cc(C)on4)c(Cl)c3)c2cc1OC [Tivozanib] + N=C(N)NC(=N)NCCc1ccccc1 [Phenformin] (partner 250 µM)
Result: 0.507

Ask: Query: relative viability; subject: Nc1ccn([C@@H]2O[C@H](CO)[C@@H](O)[C@@H]2O)c(=O)n1 [Cytarabine] + CC1(C)CCC(c2ccc(Cl)cc2)=C(CN2CCN(c3ccc(C(=O)NS(=O)(=O)c4ccc(N[C@H](CCN5CCOCC5)CSc5ccccc5)c(S(=O)(=O)C(F)(F)F)c4)cc3)CC2)C1 [Navitoclax] (partner 0.5 µM)
Result: 0.949

Ask: Need relative viability, item COc1cc2nccc(Oc3ccc(NC(=O)Nc4cc(C)on4)c(Cl)c3)c2cc1OC [Tivozanib] + Cc1nc(NC(=O)N2CCC[C@H]2C(N)=O)sc1-c1ccnc(C(C)(C)C(F)(F)F)c1 [Alpelisib] (partner 2 µM)
Result: 0.741

Ask: Item under review: COc1cc2nccc(Oc3ccc(NC(=O)Nc4cc(C)on4)c(Cl)c3)c2cc1OC [Tivozanib] + CS(=O)(=O)CCNCc1ccc(-c2ccc3ncnc(Nc4ccc(OCc5cccc(F)c5)c(Cl)c4)c3c2)o1 [Lapatinib] (partner 2 µM) . Reported relative viability?
Result: 0.775

---

system: LC-2-ad; test: relative viability (nuclei count vs DMSO), 5 days (fraction); higher = more cells survive; details: first compound 500 µM
Reported endpoint: relative viability
Give the value as a plain number.

Ask: Fill blank: measured relative viability of the molecule O=C(O)CCCCC(CCSCc1ccccc1)SCc1ccccc1 (centres undefined) [CPI-613] + O=C(c1cc(Cc2n[nH]c(=O)c3ccccc23)ccc1F)N1CCN(C(=O)C2CC2)CC1 [Olaparib] (partner 8 µM) is ____.
Result: 0.0817

Ask: Look at this molecule and give its reported relative viability. O=C(O)CCCCC(CCSCc1ccccc1)SCc1ccccc1 (centres undefined) [CPI-613] + C[C@@H](Oc1cc(-c2cnn(C3CCNCC3)c2)cnc1N)c1c(Cl)ccc(F)c1Cl [Crizotinib] (partner 1 µM)
Result: 0.51

Ask: # relative viability lookup, item O=C(O)CCCCC(CCSCc1ccccc1)SCc1ccccc1 (centres undefined) [CPI-613] + COc1cc2c(Oc3ccc(NC(=O)C4(C(=O)Nc5ccc(F)cc5)CC4)cc3F)ccnc2cc1OCCCN1CCOCC1 [Foretinib] (partner 0.25 µM)
Result: 0.0582

Ask: Which relative viability is listed for O=C(O)CCCCC(CCSCc1ccccc1)SCc1ccccc1 (centres undefined) [CPI-613] + CC1(C)CCC(c2ccc(Cl)cc2)=C(CN2CCN(c3ccc(C(=O)NS(=O)(=O)c4ccc(N[C@H](CCN5CCOCC5)CSc5ccccc5)c(S(=O)(=O)C(F)(F)F)c4)cc3)CC2)C1 [Navitoclax] (partner 0.5 µM) ?
Result: 0.0074
